Each entry below carries its recorded melting point.

Check the records and state melting point for C[C@H](NC(=O)Cc1cc(F)cc(F)c1)C(=O)N[C@@H]1C(=O)Nc2ccccc2S[C@@H]1c1cccs1 [Example 99]
117 to 119 °C

====

OBSERVABLE: melting point

| COMPOUND | VAL |
| --- | --- |
| CC(C)[C@H](NC(=O)Cc1cc(F)cc(F)c1)C(=O)N[C@@H]1C(=O)Nc2ccccc2S[C@@H]1c1ccccc1 | 110 to 115 °C |

Supply reported melting point belonging to this compound: "C[C@H](NC(=O)Cc1cccc(F)c1)C(=O)N[C@@H]1C(=O)Nc2ccccc2O[C@@H]1c1ccccc1"
130 to 140 °C

Provide measured melting point value, entry: "N[C@@H](Cc1ccccc1)C(=O)N(C(=O)Cc1cc(F)cc(F)c1)[C@@H]1C(=O)Nc2ccccc2S[C@@H]1c1ccccc1"
115 to 120 °C

State its melting point: "C[C@H](NC(=O)Cc1ccccc1)C(=O)N[C@@H]1C(=O)Nc2ccccc2O[C@@H]1c1ccccc1"
122 to 136 °C

Return reported melting point. Input compound: "C[C@H](NC(=O)Cc1ccccc1F)C(=O)N[C@@H]1C(=O)Nc2ccccc2O[C@@H]1c1ccccc1"
115 to 135 °C

====

# melting point values compiled below
Where a name gives a salt, the structure may show the parent alone.

Worked cases, answers included:
| MOLECULE | VAL |
| --- | --- |
| C[C@H](NCCc1ccccc1)C(=O)N[C@@H]1C(=O)Nc2ccccc2S[C@@H]1c1ccccc1 (as salt: hydrochloride) [Example 98] | 184 to 195 °C |
| O=C(Cc1cc(F)cc(F)c1)NCC(=O)N[C@@H]1C(=O)Nc2ccccc2S[C@@H]1c1ccccc1 [Example 106] | 125 to 130 °C |
| C[C@H](NC(=O)Cc1cc(F)cc(F)c1)C(=O)N[C@@H]1C(=O)Nc2ccccc2S[C@@H]1c1ccco1 [Example 101] | 125 to 130 °C |

Identify measured melting point associated with C[C@H](NC(=O)Cc1cc(F)cc(F)c1)C(=O)N[C@@H]1C(=O)Nc2ccccc2S[C@@H]1c1cc(Br)cs1 [Example 104]
145 to 155 °C

For the molecule C[C@H](NC(=O)Cc1ccc(F)cc1)C(=O)N[C@@H]1C(=O)Nc2ccccc2O[C@@H]1c1ccccc1 [Example 116] , report melting point.
130 to 140 °C

Give reported melting point value for C[C@H](NC(=O)Cc1cc(F)cc(F)c1)C(=O)N[C@@H]1C(=O)NCCS[C@@H]1c1ccccc1 [Example 7]
128 to 133 °C

====

Listed molecules paired with reported melting point

| MOLECULE | OBSERVABLE | VAL |
| --- | --- | --- |
| O=C(Cc1cc(F)cc(F)c1)N[C@@H](Cc1cc2ccccc2[nH]1)C(=O)N[C@@H]1C(=O)Nc2ccccc2S[C@@H]1c1ccccc1 [Example 110] | melting point | 85 to 90 °C |
| C[C@H](NC(=O)Cc1cc(F)cc(F)c1)C(=O)N[C@@H]1C(=O)Nc2ccccc2S[C@H]1c1ccoc1 [Example 102] | melting point | 115 to 120 °C |
| C[C@H](NC(=O)Cc1ccccc1)C(=O)N[C@@H]1C(=O)Nc2ccccc2S[C@@H]1c1ccccc1 [Example 97] | melting point | 114 to 124 °C |
| CSCC[C@H](NC(=O)Cc1cc(F)cc(F)c1)C(=O)N[C@@H]1C(=O)Nc2ccccc2S[C@@H]1c1ccccc1 [Example 109] | melting point | 85 to 90 °C |

Now take the following molecule into account.
Supply recorded melting point for CC(C)C[C@H](O)C(=O)N[C@@H](C)C(=O)N[C@@H]1C(=O)NCCS[C@@H]1c1ccccc1 [Example 93] here.
93 to 99 °C
